B1: TPR 5TU (parent)
chain: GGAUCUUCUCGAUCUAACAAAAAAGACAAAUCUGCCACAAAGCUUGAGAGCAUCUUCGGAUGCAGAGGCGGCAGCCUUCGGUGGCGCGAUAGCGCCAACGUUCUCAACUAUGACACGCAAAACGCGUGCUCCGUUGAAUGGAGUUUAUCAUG

Variants of: B1
EXPERIMENT DESCRIPTION: polymerase ribozyme fitness, log enrichment relative to wild type (log ratio); higher = more active; in vitro selection for triplet polymerase activity
Fewer inactive variants are shown than the library holds.
Label 1 when polymerase ribozyme fitness (log ratio) is at or above -3; otherwise label -1.

Would you please look over these solved cases?
                                 mutant  category
0        A40U G50U A60C A73G C85U U151G        -1
1                   C27A G50A C54U C95A        -1
2  C8U A39C G59C C96U C103A C114U C116U        -1
3                       G59C G68C C118G        -1
4   C8A A12G A41C A47G U53A G143U U151C        -1

Check if polymerase ribozyme fitness (log ratio) >= -3 (inclusive). Item: A37C G92U
1

A52U U101G , same question.
1

Next entry: C87U G124A
1

Do the same for C95U C116G G133U please
-1

Subsequent entry: C8G G59C G86C G117U
-1

Same thing, different variant: C87U G136C
-1

Now the same for A30U C69G C79A C87G G126A G140C
-1
